All figures here come from patent US9376442B2.

# TEST_SYSTEM: PDE4B1 (Homo sapiens)
# Construct: made in house; host or cells: SF21 insect cells (baculovirus; pCRBac vector), 1000 x g supernatant of homogenate
# Sequence (Q07343 whole entry): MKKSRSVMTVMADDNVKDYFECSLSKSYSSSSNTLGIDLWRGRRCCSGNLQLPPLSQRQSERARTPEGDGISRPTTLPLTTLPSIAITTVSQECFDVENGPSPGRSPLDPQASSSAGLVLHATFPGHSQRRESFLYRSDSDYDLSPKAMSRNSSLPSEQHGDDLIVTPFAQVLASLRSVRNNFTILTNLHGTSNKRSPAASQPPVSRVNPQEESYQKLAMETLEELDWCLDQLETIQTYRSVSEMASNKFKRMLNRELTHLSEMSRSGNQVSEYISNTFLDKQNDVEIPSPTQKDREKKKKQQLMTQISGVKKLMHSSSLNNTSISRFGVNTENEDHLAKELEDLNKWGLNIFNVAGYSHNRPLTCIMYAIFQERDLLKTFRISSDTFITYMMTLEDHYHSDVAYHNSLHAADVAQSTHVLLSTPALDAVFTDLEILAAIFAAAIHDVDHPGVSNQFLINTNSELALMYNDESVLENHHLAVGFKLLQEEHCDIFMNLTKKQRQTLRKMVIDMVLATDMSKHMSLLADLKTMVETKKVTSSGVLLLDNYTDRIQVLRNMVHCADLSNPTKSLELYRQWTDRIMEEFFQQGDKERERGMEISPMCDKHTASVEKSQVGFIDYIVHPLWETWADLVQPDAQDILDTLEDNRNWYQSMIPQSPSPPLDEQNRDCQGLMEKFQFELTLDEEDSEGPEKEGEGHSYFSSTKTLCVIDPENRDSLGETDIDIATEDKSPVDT
# ASSAY_METHOD_TEXT: Inhibition of type 4 phosphodiesterase (PDE4) activity, modified SPA test with recombinant PDE4B1 expressed in SF21 insect cells
# Assay type: biochemical
# RUN_PARAMETERS: recombinant PDE4B1, 0.5 μM cAMP, read-out: PDE4B1 inhibitory values [measured as −log IC50 (mol/l)] (converted)
ENDPOINT_LABEL: IC50

| COMPOUND | TEST_SYSTEM | MEASURED_VALUE |
| --- | --- | --- |
| COCC(=O)N1CCC(NC(=O)c2c(C)[nH]c3c(-c4cc(OC)ccc4OCC4CC4)ncnc23)CC1 [Example E68] | PDE4B1 (Homo sapiens) | 100 to 1000 nM |
| COc1ccc(OCC2CC2)c(-c2ncnc3c(C(=O)NC4CCN(C(=O)[C@H](C)O)CC4)c(C)[nH]c23)c1 [Example F42] | PDE4B1 (Homo sapiens) | 100 to 1000 nM |
| CCC(=O)N[C@H]1CC[C@H](NC(=O)c2c(C)[nH]c3c(-c4cc(C(F)F)ccc4OCC4CC4)ncnc23)[C@H](F)C1 (relative stereo) [Example P170] | PDE4B1 (Homo sapiens) | < 100 nM |
| CCC(=O)N1C[C@@H](NC(=O)c2c(C)[nH]c3c(-c4cc(C(F)F)ccc4OCC4CC4)ncnc23)C[C@@H]1C [Example P25] | PDE4B1 (Homo sapiens) | < 100 nM |
| COCC(=O)N[C@H]1CC[C@H](NC(=O)c2c(C)[nH]c3c(-c4cc(C(F)F)ccc4OCC4CC4)ncnc23)[C@H](F)C1 (relative stereo) [Example P171] | PDE4B1 (Homo sapiens) | < 100 nM |
| CC(=O)N[C@H]1CC[C@H](NC(=O)c2c(C)[nH]c3c(-c4cc(C(F)F)ccc4OCC4CC4)ncnc23)CC1 [Example P6] | PDE4B1 (Homo sapiens) | < 100 nM |
| CC(=O)N1CCC(NC(=O)c2c(C)[nH]c3c(-c4cc(C(C)C)ccc4OCC4CC4)ncnc23)CC1 [Example E157] | PDE4B1 (Homo sapiens) | 100 to 1000 nM |
